Target: H5 HA A/HK/491/97 (on pseudotypes) (influenza A virus A/HK/491/97 (H5N1))
Assay: cell-based or functional assay
readout_type: Neutralization of HA-pseudotypes (IC90)

Problem: If you can, please state the reported Neutralization of HA-pseudotypes (IC90) value of FE53 (antibody, V domains shown) VH: QVQLVQSGAEVKKPGSSVKVSCKASGVTSSNYPITWVRQAPGQGLEWMGGVLPLFGVTNYAQKFQGRVTISADKSTNTAYMELSSLRSEDTAVYYCARGKRPGYCSGGVCSSDYWGQGTLVTVSS VL: DIQMTQSPSSLSASVGDRVSITCQASQDISRYLNWYQQKPGEAPKLLIYDASNLETGVPSRFSGSGSGTDFTFTISSLQPEDIATYFCQQYGYLPLTFGPGTKVDSK .
Result: 0.046 µg/mL
